test system: IL-23 stimulated Kit225 T cells (STAT-dependent luciferase reporter); test: Kit225 T cell assay, IL-23 stimulated STAT-dependent luciferase reporter; format: cell-based; conditions: 20 ng/mL human recombinant IL-23, 5-6 hours
OBSERVED PROPERTY: pIC50
In plain terms, pIC50 is the concentration in mol/L turned into minus its base-10 logarithm.

>  <COMPOUND>
COc1ccc(Nc2cc(Nc3ncccc3S(C)(=O)=O)c3nc(C)[nH]c3n2)nc1 [Example 42]

>  <pIC50>
7.12

$$$$

Would you kindly look at the next entry?
For the compound Cc1nc2c(Nc3ccccc3S(C)(=O)=O)cc(Nc3cc(C)c(C#N)c(C)n3)nc2[nH]1 [Example 28] , what pIC50 is on record?
7.15
